Every entry's value here was drawn from the supplement of paper PMC11986102.

# Test system: Escherichia coli IAI1
# Assay text: OD600 after 10 h growth (baseline-subtracted); higher = more bacterial growth (less inhibition)
# Assay conditions: 64 µg/mL
The entries below are paired with their reported OD600 after 10 h growth.
Just the number.

Guide cases for OD600 after 10 h growth, answers given:
[
  {
    "Cpd smiles": "COc1cc2c(cc1Cc1cccc(Cl)c1F)c(=O)c(C(=O)O)cn2[C@H](CO)C(C)C",
    "OD600 after 10 h growth": 0.784
  },
  {
    "Cpd smiles": "Cc1c(Cl)c(C)[n+]([O-])c(Cl)c1-c1noc(-c2cc(O)c(O)c([N+](=O)[O-])c2)n1",
    "OD600 after 10 h growth": 0.792
  },
  {
    "Cpd smiles": "Cc1cn([C@H]2C[C@H](O)[C@@H](CO)O2)c(=O)[nH]c1=O",
    "OD600 after 10 h growth": 0.782
  },
  {
    "Cpd smiles": "CC(=O)N[C@H](Cc1ccc2ccccc2c1)C(=O)N[C@H](Cc1ccc(Cl)cc1)C(=O)N[C@H](Cc1cccnc1)C(=O)N[C@@H](CO)C(=O)N[C@@H](Cc1ccc(O)cc1)C(=O)N[C@H](CCCNC(N)=O)C(=O)N[C@@H](CC(C)C)C(=O)N[C@@H](CCCNC(=N)N)C(=O)N1CCC[C@H]1C(=O)N[C@H](C)C(N)=O",
    "OD600 after 10 h growth": 0.8
  },
  {
    "Cpd smiles": "CC1=C(C)C(=O)C(CCCCCCCCCC[P+](c2ccccc2)(c2ccccc2)c2ccccc2)=CC1=O",
    "OD600 after 10 h growth": 0.032
  }
]

Consider now this further compound.
The measured OD600 after 10 h growth that CC(C)(C)c1ccc(C(=O)CCCN2CCC(OC(c3ccccc3)c3ccccc3)CC2)cc1 showed for Escherichia coli IAI1 is 0.754
